Give measured IC50 for each item. Keep answers brief.
- tested_target: human β1-adrenergic receptor (Homo sapiens)
- Sequence (P08588 whole entry): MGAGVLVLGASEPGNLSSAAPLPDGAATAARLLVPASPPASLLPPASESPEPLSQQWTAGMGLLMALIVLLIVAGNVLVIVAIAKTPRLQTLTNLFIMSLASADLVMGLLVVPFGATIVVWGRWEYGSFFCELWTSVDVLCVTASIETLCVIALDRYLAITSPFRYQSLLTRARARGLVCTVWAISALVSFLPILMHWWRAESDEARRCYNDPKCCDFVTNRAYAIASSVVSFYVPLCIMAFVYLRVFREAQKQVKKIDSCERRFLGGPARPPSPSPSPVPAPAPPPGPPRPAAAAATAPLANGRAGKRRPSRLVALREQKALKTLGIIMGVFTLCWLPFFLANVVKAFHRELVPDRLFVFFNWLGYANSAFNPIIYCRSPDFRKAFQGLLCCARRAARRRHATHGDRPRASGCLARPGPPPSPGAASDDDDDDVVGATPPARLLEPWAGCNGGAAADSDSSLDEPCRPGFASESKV
- assay_notes: Second series: binding competition, human β1
- particulars: IC50 (nM) β1, Second series (human)
Your answer should be a plain number; it is taken to be in nM.

Q) What value of IC50 on human β1-adrenergic receptor (Homo sapiens) does COc1ccc(CC(C)NCC(O)c2ccc(O)c(N)c2)cc1 (single isomer, unassigned) [(S,S)-Desformoterol] have?
A) 64700

Q) What value of IC50 on human β1-adrenergic receptor (Homo sapiens) does COc1ccc(CC(C)NCC(O)c2ccc(O)c(N)c2)cc1 (single isomer, unassigned) [(R,S)-Desformoterol] have?
A) 1790

Q) What value of IC50 on human β1-adrenergic receptor (Homo sapiens) does COc1ccc(CC(C)NCC(O)c2ccc(O)c(N)c2)cc1 (single isomer, unassigned) [(R,R)-Desformoterol] have?
A) 3180

Q) What value of IC50 on human β1-adrenergic receptor (Homo sapiens) does COc1ccc(CC(C)NCC(O)c2ccc(O)c(N)c2)cc1 [(R,R/S,S)-Desformoterol] have?
A) 5140

----------
Give measured IC50 for each item. Keep answers brief.
- tested_target: human β2-adrenergic receptor (Homo sapiens)
- Sequence (P07550 whole entry): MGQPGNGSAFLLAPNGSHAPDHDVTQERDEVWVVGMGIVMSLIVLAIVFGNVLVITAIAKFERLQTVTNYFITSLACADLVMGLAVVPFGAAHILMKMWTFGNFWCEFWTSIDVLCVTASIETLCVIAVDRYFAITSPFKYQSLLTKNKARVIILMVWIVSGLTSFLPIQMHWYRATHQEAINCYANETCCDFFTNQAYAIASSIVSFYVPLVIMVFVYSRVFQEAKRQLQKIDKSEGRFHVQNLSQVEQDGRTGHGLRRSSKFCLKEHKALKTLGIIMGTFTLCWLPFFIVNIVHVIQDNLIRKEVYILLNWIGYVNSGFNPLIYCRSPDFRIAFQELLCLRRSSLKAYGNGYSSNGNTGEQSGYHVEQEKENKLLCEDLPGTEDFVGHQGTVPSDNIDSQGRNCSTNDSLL
- assay_notes: Second series: binding competition, human β2
- particulars: IC50 (nM) β2, Second series (human)
Your answer should be a plain number; it is taken to be in nM.

Q) Report IC50 for COc1ccc(CC(C)NCC(O)c2ccc(O)c(N)c2)cc1 [(R,R/S,S)-Desformoterol] please.
A) 81.3

Q) Report IC50 for COc1ccc(CC(C)NCC(O)c2ccc(O)c(N)c2)cc1 (single isomer, unassigned) [(R,S)-Desformoterol] please.
A) 3140

Q) Report IC50 for COc1ccc(C[C@@H](C)NCC(O)c2ccc(O)c(N)c2)cc1 (stereo partly drawn) [(S,R)-Desformoterol] please.
A) 1830

Q) Report IC50 for COc1ccc(CC(C)NCC(O)c2ccc(O)c(N)c2)cc1 (single isomer, unassigned) [(R,R)-Desformoterol] please.
A) 35.6
